Test: In vitro permeability across MDCK cell monolayer
Type: in vitro ADME, Canine
Details: dog, MDCK, test compound 5 μM, 2 h at 37° C., apical to basolateral, read-out: Permeability Forward A > B
Reported endpoint: Papp A→B at 2 h, 5 μM
Value and unit, in that order.

Reference set (7 entries):
Compound	Papp A→B at 2 h, 5 μM
CC(=O)NC(Cc1cc(F)cc(F)c1)C(O)CNC1(c2cncc(-n3cccn3)c2)CC1 (centres unmarked)	8.62 ×10⁻⁶ cm/s
CC(=O)NC(Cc1cc(F)cc(F)c1)C(O)CNC1(c2cccc(C3CCOCOC3)c2)CC1 (centres unmarked)	12.1 ×10⁻⁶ cm/s
CC(=O)NC(Cc1cc(F)cc(F)c1)C(O)CNC1(c2cccc(-n3cccn3)c2)CC1C(C)C (centres unmarked)	11.4 ×10⁻⁶ cm/s
CC(=O)NC(Cc1cc(F)cc(F)c1)C(O)CNC1(c2cc(-n3cccn3)cs2)CC1 (centres unmarked)	12.1 ×10⁻⁶ cm/s
CC(=O)NC(Cc1cc(F)cc(F)c1)C(O)CNC1(c2cccc(C3CCOC3)c2)CC1 (centres unmarked)	13.2 ×10⁻⁶ cm/s
CC(=O)NC(Cc1cc(F)cc(F)c1)C(O)CNC1(c2cccc(C3COCO3)c2)CC1 (centres unmarked)	12.7 ×10⁻⁶ cm/s
CC(=O)NC(Cc1cc(F)cc(F)c1)C(O)CNC1(c2cnn(C(C)(C)C)c2)CC1 (centres unmarked)	7.11 ×10⁻⁶ cm/s

Prompt: # return recorded Papp A→B at 2 h, 5 μM for input CCC1CC1(NCC(O)C(Cc1cc(F)cc(F)c1)NC(C)=O)c1cccc(-n2cccn2)c1 (centres unmarked)
Response: 18.4 ×10⁻⁶ cm/s

###

Assay: In vitro permeability across MDCK cell monolayer
Format: in vitro ADME, Canine
Conditions: dog, test compound 5 μM, 2 h at 37° C., apical to basolateral, read-out: Permeability Forward A > B
Reported endpoint: Papp A→B at 2 h, 5 μM (×10⁻⁶ cm/s)
Dear colleague, please return just the value in ×10⁻⁶ cm/s, with no unit written.

Molecule	Papp A→B at 2 h, 5 μM [×10⁻⁶ cm/s]
CC(C)(C)Cc1cc(C2(NCC(O)C(Cc3cc(F)cc(F)c3)NC(=O)CF)CC2)on1 (stereo not drawn)	8.26
CC(=O)NC(Cc1cc(F)cc(F)c1)C(O)CNC1(c2csc(CC(C)(C)C)n2)CC1 (stereo not drawn)	26.7

Prompt: # return recorded Papp A→B at 2 h, 5 μM for input CC(=O)NC(Cc1cc(F)cc(F)c1)C(O)CNC1(c2nc(CC(C)(C)C)cs2)CC1 (stereo not drawn)
Response: 11.3

###

Tested on: Madin-Darby Canine Kidney (MDCK) cells
Assay: In vitro permeability across MDCK cell monolayer
Assay type: in vitro ADME
Details: test compound 5 μM, 2 h at 37° C., apical to basolateral
Reported endpoint: Permeability Forward A > B (×10⁻⁶ cm/s)
Dear colleague, please return just the value in ×10⁻⁶ cm/s, with no unit written.

Reference set (3 entries):
Compound	Permeability Forward A > B, ×10⁻⁶ cm/s
CC(=O)NC(Cc1cc(F)cc(F)c1)C(O)CNC1(c2cccc(-n3cccn3)c2)CC1 (centres unmarked) [Example 23.12]	16.29
CC(=O)NC(Cc1cc(F)cc(F)c1)C(O)CNC1(c2cccc(-n3cccn3)c2)CC1 (centres unmarked) [Example 23.27]	16.35
CC(=O)NC(Cc1cc(F)cc(F)c1)C(O)CNC1(c2cccc(-n3cccn3)c2)CC1C(C)C (centres unmarked)	14.8

Prompt: # return recorded Permeability Forward A > B for input CC(=O)NC(Cc1cc(F)cc(F)c1)C(O)CNC1(c2cccc(C(C)C(F)(F)F)c2)CC1 (centres unmarked)
Response: 19.62

Prompt: # return recorded Permeability Forward A > B for input CC(=O)NC(Cc1cc(F)cc(F)c1)C(O)CNC1(c2cccc(-n3cccn3)c2)CC1 (centres unmarked) [Example 23.18]
Response: 8.78

###

Test system: beta-secretase (BACE) versus cathepsin D (catD)
Assay: CatD/BACE selectivity (ratio of IC50 values)
Type: biochemical
Details: each value average of four experimental runs; multiple values = more than one experiment
Returns Condition met if the recorded Selectivity IC50 catD/IC50 BACE is greater than or equal to 3, and Condition not met otherwise.

Some solved entries appear below for comparison.
Molecule	Assigned label
CC(=O)NC(Cc1cc(F)cc(F)c1)C(O)CNC1(c2cccc(C(C)C(F)(F)F)c2)CC1 (centres unmarked) [Example 23.7]	Condition not met
O=C(Cc1nnn[nH]1)NC(Cc1cc(F)cc(F)c1)C(O)CNC1(c2cccc(-n3cccn3)c2)CC1 (centres unmarked) [Example 23.8]	Condition met
CC(=O)NC(Cc1cc(F)cc(F)c1)C(O)CNC1(c2cccc(C3CCCC3)c2)CC1 (centres unmarked) [Example 23.2]	Condition met
CC(=O)NC(Cc1cc(F)cc(F)c1)C(O)CNC1(c2cccc(C3CC4CCC3C4)c2)CC1 (centres unmarked) [Example 23.1]	Condition met
CC(=O)NC(Cc1cc(F)cc(F)c1)C(O)CNC1(c2cc(O)cc(CC(C)(C)C)c2)CC1 (centres unmarked) [Example 23.3]	Condition not met
CC(=O)NC(Cc1cc(F)cc(F)c1)C(O)CNC1(c2cnn(C(C)(C)C)c2)CC1 (centres unmarked) [Example 23.5]	Condition met
CC(=O)NC(Cc1cc(F)cc(F)c1)C(O)CNC1(c2ccn(CC(C)(C)C)n2)CC1 (centres unmarked) [Example 23.4]	Condition met

As a next step, examine the molecule that follows.
Prompt: Tell me whether Selectivity IC50 catD/IC50 BACE is at least 3 here: O=C(O)CCCC(=O)NC(Cc1cc(F)cc(F)c1)C(O)CNC1(c2cccc(-n3cccn3)c2)CC1 (centres unmarked) [Example 23.9]
Response: Condition not met

###

Experiment: In vitro permeability across MDCK cell monolayer
Format: in vitro ADME, Canine
Details: dog, MDCK, test compound 5 μM, 2 h at 37° C., apical to basolateral, read-out: Permeability Forward A > B
Reported endpoint: Papp A→B at 2 h, 5 μM

Prompt: # return recorded Papp A→B at 2 h, 5 μM for input COCC(=O)NC(Cc1cc(F)cc(F)c1)C(O)CNC1(c2cccc(-n3cccn3)c2)CC1 (centres unmarked)
Response: 12.9 ×10⁻⁶ cm/s

Prompt: # return recorded Papp A→B at 2 h, 5 μM for input COCC(C)(C)c1cccc(C2(NCC(O)C(Cc3cc(F)cc(F)c3)NC(C)=O)CC2)c1 (centres unmarked)
Response: 14.7 ×10⁻⁶ cm/s

Prompt: # return recorded Papp A→B at 2 h, 5 μM for input CCOCC(=O)NC(Cc1cc(F)cc(F)c1)C(O)CNC1(c2cccc(-n3cccn3)c2)CC1 (centres unmarked)
Response: 9.86 ×10⁻⁶ cm/s

Prompt: # return recorded Papp A→B at 2 h, 5 μM for input CC(=O)NC(Cc1cc(F)cc(F)c1)C(O)CNC1(c2ncc(C(C)(C)C)o2)CC1 (centres unmarked)
Response: 20.4 ×10⁻⁶ cm/s

Prompt: # return recorded Papp A→B at 2 h, 5 μM for input CC(=O)NC(Cc1cc(F)cc(F)c1)C(O)CNC1(c2cccc(C3CC=CCO3)c2)CC1 (centres unmarked)
Response: 10.7 ×10⁻⁶ cm/s

Prompt: # return recorded Papp A→B at 2 h, 5 μM for input Cc1cc(CC(=O)NC(Cc2cc(F)cc(F)c2)C(O)CNC2(c3cccc(-n4cccn4)c3)CC2)no1 (centres unmarked)
Response: 10.4 ×10⁻⁶ cm/s

Prompt: # return recorded Papp A→B at 2 h, 5 μM for input CC(=O)NC(Cc1cc(F)cc(F)c1)C(O)CNC1(n2cccn2)C2CCCC21 (centres unmarked)
Response: 20.4 ×10⁻⁶ cm/s

Prompt: # return recorded Papp A→B at 2 h, 5 μM for input CC(=O)NC(Cc1cc(F)cc(F)c1)C(O)CNC1(c2csc(C(C)(C)C)c2)CC1 (centres unmarked)
Response: 10 ×10⁻⁶ cm/s
